Measured values drawn from PubChem BioAssay (NCI) for this set.

# Test system: MDA-N
# protocol summary: NCI tumour cell line growth inhibition, 48 h
parameter: TGI

COc1cc(OC)cc(C(=O)CC(=O)c2cc(OC)cc(OC)c2)c1 > 100 µM
Cc1cc(/N=C/c2ccc(N(C)C)cc2)n(-c2ccccc2)n1 > 100 µM
COC1=CC(=O)c2c(c(-c3nc(C)cs3)cn2C)C1=O 2.7 µM
O=C(O)CN1CCN2CCCCCN(CC1)CCN(CC(=O)O)CC2 > 100 µM
N[C@@H](Cc1ccccc1)C(=O)N1CCC[C@@H]1P(=O)(Oc1ccccc1)Oc1ccccc1 > 100 µM
COC(=O)/C=C\C(C#N)(C#N)N=Cc1ccc(C)cc1 14 µM
N#C/C(=C\c1ccc2ccccc2c1)C(=O)c1ccccc1 > 100 µM

====

# System: TK-10 renal
# protocol summary: NCI tumour cell line growth inhibition, 48 h
Below, each entry is listed alongside its reported TGI.

compound	TGI / µM
COC(=O)/C=C\C(C#N)(C#N)N=Cc1ccc(C)cc1	3.65
COc1ccc(C2c3cn[nH]c3CC3CCCCC32)cc1 (stereo not given)	37.1
Cc1ccc2nc(/C(=C/c3ccc(/C=C(\NC(=O)c4ccccc4)c4nc5ccc(C)cc5[nH]4)c(C)c3)NC(=O)c3ccccc3)[nH]c2c1	88
Cc1ccc(C2=CC(=O)OC(C[P+](c3ccccc3)(c3ccccc3)c3ccccc3)(c3ccccc3)O2)cc1 (stereo not given)	35.6

====

# System: T-47D breast
# protocol summary: NCI tumour cell line growth inhibition, 48 h
parameter: TGI

compound	recorded measurement
COC(=O)/C=C\C(C#N)(C#N)N=Cc1ccc(C)cc1	4.61 µM
O=C(Nc1cccc(C(F)(F)F)c1)c1ccc(NC2=C(Cl)C(=O)N(Cc3ccc(Cl)cc3Cl)C2=O)cc1	> 100 µM
CCOc1cc(/C=C2/C(C)=NN(c3cccc(Cl)c3)/C2=N/c2nc3ccccc3s2)ccc1O	> 100 µM
NCCCN1c2ccccc2Sc2ccc(Cl)cc21	> 9.08 µM
O=C(NC[C@H](O)CN1CCc2ccccc2C1)c1cc(NC2COC2)ncn1	> 100 µM
COc1ccc(C2c3cn[nH]c3CC3CCCCC32)cc1 (configuration not stated)	19 µM
O=C1C=C/C(=N\N=C(c2ccccc2)c2ccccc2)O1	> 10 µM
CC(=O)NC1C(OCc2ccccc2)OC(CO)C(O)C1OCC(=O)N[C@@H](C)C(=O)N[C@H](CCC(=O)NCCCNc1c2ccccc2nc2cccc([N+](=O)[O-])c12)C(N)=O (some centres not stated)	0.25 µM
O=c1[nH][nH]c(=O)n1CCCCCCn1c(=O)[nH][nH]c1=O	> 100 µM
NS(=O)(=O)c1ccc(NC(=S)/N=C/C2=C(O)c3ccccc3C2=O)cc1	> 100 µM
O=C1OC(C2Cc3ccc4ccccc4c3C2=O)c2ccccc21 (configuration not stated)	> 100 µM
Cc1cc(/N=C/c2ccc(N(C)C)cc2)n(-c2ccccc2)n1	89.5 µM
CC(=O)Nc1ccc(-c2csc(Nc3cccc(-c4csc(C)n4)c3)n2)cc1	> 43.2 µM
CC(=NNC(=S)Nc1ccccc1)c1cccc(C(C)=NNC(=S)Nc2ccccc2)n1	> 100 µM
COc1ccc(N2C(=O)CC(=O)N(NC(=O)C(C)Oc3ccccc3C)C2=S)cc1 (configuration not stated)	> 100 µM
Clc1ccc(-c2nnc3sc4nc5ccccc5c-4nn23)c(Cl)c1	> 100 µM
N=c1c2c(-c3ccccc3)c(-c3ccccc3)n(Cc3ccccc3)c2ncn1C1CCC(O)CC1 (configuration not stated)	18.3 µM
CCn1c(O)c(/C=N/NC(=O)C(C)c2ccc(CC(C)C)cc2)sc1=S (configuration not stated)	> 100 µM
CCCCCCCCCCCC[S+](C)C	3.37 µM
Cc1ccc(S(=O)(=O)n2c3c(c4ccccc42)CCN2C[C@H]([C@H](C)Br)CC[C@@H]32)cc1	> 100 µM
N#Cc1nn(-c2cc(=O)[nH]c3ccc(Cl)cc23)c(N)c1C#N	> 100 µM
O=[N+]([O-])C(=C(Nc1cccc2cccnc12)Nc1cccc2cccnc12)C(Cl)=C(Cl)Cl	> 100 µM
